- assayed system: GST-tagged recombinant human TYRO3 kinase domain (Homo sapiens (Human), UniProt Q06418)
- Sequence (Q06418 518-790): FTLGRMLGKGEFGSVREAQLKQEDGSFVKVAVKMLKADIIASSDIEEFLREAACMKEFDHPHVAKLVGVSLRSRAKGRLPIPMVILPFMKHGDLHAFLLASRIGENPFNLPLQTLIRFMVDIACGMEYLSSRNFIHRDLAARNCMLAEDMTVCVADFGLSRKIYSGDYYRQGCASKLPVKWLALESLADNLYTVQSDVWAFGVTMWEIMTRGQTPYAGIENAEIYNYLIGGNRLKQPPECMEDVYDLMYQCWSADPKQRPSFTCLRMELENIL
- protocol description: TYRO3 Enzyme Assay (LanthaScreen Eu Kinase Binding, TR-FRET)
- condition parameters: averaged IC50
pIC50: −log10 of the molar value.
Recorded pIC50, one value per entry.

- smiles structure: "CNc1cc2c(cn1)c(-c1cnn(C)c1)nn2[C@H]1CC[C@@H](Oc2cccc3ncccc23)CC1"
  pIC50: "> 8.00"
- smiles structure: "CCNc1cc2c(cn1)c(C1CCNCC1)nn2[C@H]1CC[C@@H](Oc2nccc(C(F)(F)F)c2F)CC1"
  pIC50: "> 8.00"
- smiles structure: "CNc1cc2c(cn1)c(-c1cnn(C(CO)CO)c1)nn2[C@H]1CC[C@@H](Oc2cccc(F)c2)CC1"
  pIC50: "7.00 to 8.00"

Values compiled from patent US11247990B1.
